# System: β-glucosidase
# Assay Details: β-glucosidase inhibitory assay in 96-well plates (p-NPG, absorbance 405 nm)
# Assay type: biochemical
# Condition Summary: concentration of 1 mM; end concentration of 100 µM in each well
Observable: β-glucosidase inhibition %age inhibition (%)
Please give a number only; it is taken to be in %.

>>> measured_result("Cc1n[nH]c(C)c1/N=N/c1ccc(S(N)(=O)=O)cc1")
25.1
>>> measured_result("COc1cccc(C(=O)n2nc(C)c(/N=N/c3ccc(S(N)(=O)=O)cc3)c2C)c1")
7.55
>>> measured_result("Cc1ccccc1C(=O)n1nc(C)c(/N=N/c2ccc(S(N)(=O)=O)cc2)c1C")
21.0

Task: Which measured β-glucosidase inhibition %age inhibition value corresponds to Cc1nn(C(=O)c2cccc(Cl)c2)c(C)c1/N=N/c1ccc(S(N)(=O)=O)cc1 ?
Result: 32.1

Task: // query β-glucosidase inhibition %age inhibition value for entry Cc1nn(C(=O)c2ccc(Cl)cc2)c(C)c1/N=N/c1ccc(S(N)(=O)=O)cc1
Result: 34.3

Task: If you can, please state the reported β-glucosidase inhibition %age inhibition value of Cc1nn(C(=O)c2ccc(Br)cc2)c(C)c1/N=N/c1ccc(S(N)(=O)=O)cc1 .
Result: 11.2

----------
# Assay Target: α-glucosidase (Saccharomyces cerevisiae)
# Sequence (P53341 whole entry): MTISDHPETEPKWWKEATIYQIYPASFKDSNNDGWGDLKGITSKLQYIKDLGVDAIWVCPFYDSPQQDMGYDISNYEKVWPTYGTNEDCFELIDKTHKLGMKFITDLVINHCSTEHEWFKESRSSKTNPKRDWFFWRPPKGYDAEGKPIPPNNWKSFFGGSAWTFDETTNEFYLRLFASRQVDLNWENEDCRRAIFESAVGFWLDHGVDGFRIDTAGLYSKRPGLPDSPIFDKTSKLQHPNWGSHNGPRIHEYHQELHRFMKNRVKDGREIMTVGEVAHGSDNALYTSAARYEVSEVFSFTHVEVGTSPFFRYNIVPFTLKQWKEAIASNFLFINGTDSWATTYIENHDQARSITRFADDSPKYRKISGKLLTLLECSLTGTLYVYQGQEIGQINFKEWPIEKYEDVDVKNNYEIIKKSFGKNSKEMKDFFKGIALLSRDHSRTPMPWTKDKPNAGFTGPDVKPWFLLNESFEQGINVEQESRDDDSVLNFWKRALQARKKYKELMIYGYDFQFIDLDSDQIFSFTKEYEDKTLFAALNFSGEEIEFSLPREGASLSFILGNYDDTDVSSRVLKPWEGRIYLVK
# Assay Details: biochemical
# Type: biochemical
pIC50: −log10 of the molar value.
Label yes (1) for high-side pIC50 (at or above 5) and no (0) for low-side pIC50 (below it).

Example entries begin here.
>>> class("COc1ccc(C(=O)n2nc(C)c(/N=N/c3ccc(S(N)(=O)=O)cc3)c2C)cc1OC")
"yes (1)"
>>> class("Cc1n[nH]c(C)c1/N=N/c1ccc(S(N)(=O)=O)cc1")
"no (0)"

Task: Confirm if pIC50 reported for the compound Cc1ccccc1C(=O)n1nc(C)c(/N=N/c2ccc(S(N)(=O)=O)cc2)c1C is 5 or above.
Result: yes (1)

Task: Given the entry Cc1nn(C(=O)c2cccc(Cl)c2)c(C)c1/N=N/c1ccc(S(N)(=O)=O)cc1 , answer whether its pIC50 meets or surpasses 5.
Result: yes (1)

Task: Evaluate Cc1nn(C(=O)c2ccc(Cl)cc2)c(C)c1/N=N/c1ccc(S(N)(=O)=O)cc1 : pIC50 at minimum 5?
Result: yes (1)

Task: I'd appreciate it if you could say whether Cc1nn(C(=O)c2ccc(Br)cc2)c(C)c1/N=N/c1ccc(S(N)(=O)=O)cc1 has pIC50 at least equal to 5.
Result: no (0)

Task: # bool: pIC50 of COc1cccc(C(=O)n2nc(C)c(/N=N/c3ccc(S(N)(=O)=O)cc3)c2C)c1 >= 5
Result: no (0)

----------
Entries and their melting point values follow.

Some entries whose results are on file:
>>> measured_result("COc1ccc(C(=O)n2nc(C)c(/N=N/c3ccc(S(N)(=O)=O)cc3)c2C)cc1")
"202 to 205 °C"
>>> measured_result("Cc1ccc(C(=O)n2nc(C)c(/N=N/c3ccc(S(N)(=O)=O)cc3)c2C)cc1")
"218 to 220 °C"
>>> measured_result("COc1ccc(C(=O)n2nc(C)c(/N=N/c3ccc(S(N)(=O)=O)cc3)c2C)cc1OC")
"226 to 228 °C"
>>> measured_result("Cc1nn(C(=O)c2ccc([N+](=O)[O-])cc2)c(C)c1/N=N/c1ccc(S(N)(=O)=O)cc1")
"231 to 233 °C"
>>> measured_result("Cc1nn(C(=O)c2ccc(Br)cc2)c(C)c1/N=N/c1ccc(S(N)(=O)=O)cc1")
"235 to 237 °C"

Next compound, melting point to be filled in.
Task: Fill blank: measured melting point of the compound Cc1n[nH]c(C)c1/N=N/c1ccc(S(N)(=O)=O)cc1 is ____.
Result: 188 to 190 °C
